# TARGET_OF_ASSAY: human TLR8 (Homo sapiens, UniProt Q9NR97)
# Sequence (Q9NR97 27-1041): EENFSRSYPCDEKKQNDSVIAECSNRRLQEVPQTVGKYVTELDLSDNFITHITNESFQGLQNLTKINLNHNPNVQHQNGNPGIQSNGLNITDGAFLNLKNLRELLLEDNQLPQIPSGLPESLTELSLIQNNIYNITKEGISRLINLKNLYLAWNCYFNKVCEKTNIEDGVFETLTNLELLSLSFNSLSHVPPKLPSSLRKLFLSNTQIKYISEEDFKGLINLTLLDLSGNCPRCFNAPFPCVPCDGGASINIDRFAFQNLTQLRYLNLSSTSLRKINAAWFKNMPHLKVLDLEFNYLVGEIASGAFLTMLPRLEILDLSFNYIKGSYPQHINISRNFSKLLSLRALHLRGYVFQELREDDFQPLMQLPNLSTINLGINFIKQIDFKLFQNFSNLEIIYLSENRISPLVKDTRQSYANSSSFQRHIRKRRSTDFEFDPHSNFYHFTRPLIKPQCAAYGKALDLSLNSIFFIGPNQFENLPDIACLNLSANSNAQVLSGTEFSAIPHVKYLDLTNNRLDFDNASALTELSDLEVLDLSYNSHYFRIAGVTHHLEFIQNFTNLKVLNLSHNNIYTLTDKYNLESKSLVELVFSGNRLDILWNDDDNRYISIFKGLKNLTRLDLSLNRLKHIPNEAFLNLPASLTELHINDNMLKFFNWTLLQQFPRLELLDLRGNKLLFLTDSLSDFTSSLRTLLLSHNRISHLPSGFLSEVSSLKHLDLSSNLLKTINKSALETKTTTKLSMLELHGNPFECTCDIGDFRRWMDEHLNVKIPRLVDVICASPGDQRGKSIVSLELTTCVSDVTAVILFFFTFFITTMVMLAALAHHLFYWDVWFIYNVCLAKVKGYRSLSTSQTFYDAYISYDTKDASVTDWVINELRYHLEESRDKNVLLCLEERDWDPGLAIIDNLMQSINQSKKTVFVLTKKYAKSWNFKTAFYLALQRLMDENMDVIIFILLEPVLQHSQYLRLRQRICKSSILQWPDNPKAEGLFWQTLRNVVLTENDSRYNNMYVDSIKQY
# METHOD: HEK-Blue hTLR8 SEAP reporter gene agonist assay
# TEST_CONDITIONS: HEK-Blue hTLR8 cells, 16 to 22 hours incubation
pEC50: −log10 of the molar value.
ENDPOINT_NAME: pEC50

Give recorded pEC50. CCC[C@@H](C)Nc1nc(N)nc2ccn(Cc3ccc(CN4CCN(C)CC4)cc3OC)c(=O)c12
7.24

Give recorded pEC50. CCC[C@@H](CO)Nc1nc(N)nc2ccn(Cc3ccc(CN(C)CCN)cc3OC)c(=O)c12
7.15

Give recorded pEC50. CCC[C@@H](C)Nc1nc(N)nc2ccn(Cc3ccc(CN4CCNCC4)cc3OC)c(=O)c12
6.97

Give recorded pEC50. CCC[C@@H](C)Nc1nc(N)nc2ccn(Cc3ccc(CN4CCN(CCO)CC4)cc3)c(=O)c12
7.40

Give recorded pEC50. CCC[C@@H](CCO)Nc1nc(N)nc2ccn(Cc3ccc(CN4CCCC4)cc3)c(=O)c12
7.28

Give recorded pEC50. CCCCNc1nc(N)nc2ccn(Cc3ccc(CCN(C)C)cc3)c(=O)c12
7.33

P. CCC[C@@H](CO)Nc1nc(N)nc2ccn(Cc3ccc(C(=O)N4CCN(C)CC4)cc3OC)c(=O)c12
Q. CCC[C@@H](CO)Nc1nc(N)nc2ccn(Cc3ccc(CN4CCNCC4)cc3OC)c(=O)c12
Kindly compare P with Q and tell me which has the lower pEC50 figure. Reply with the label of the item you choose.
Q
(Q: 7.74, P: 8.40)

I. CCC[C@@H](C)Nc1nc(N)nc2ccn(Cc3ccc(C(=O)N4CCN(C)CC4)cc3OC)c(=O)c12
II. CCC[C@@H](C)Nc1nc(N)nc2ccn(Cc3ccc(CN4CC5(COC5)C4)nc3OC)c(=O)c12
pEC50 comparison. Which is larger, I or II ? Reply with the label of the item you choose.
II

A. CCC[C@@H](C)Nc1nc(N)nc2ccn(Cc3ccc(CN(C)CCO)cc3OC)c(=O)c12
B. CCCCNc1nc(N)nc2ccn(Cc3ccc(CN(CCC)CCO)cc3)c(=O)c12
C. CCCCCCCCCCCCCCCC(=O)OC[C@H](CCC)Nc1nc(N)nc2ccn(Cc3ccc(CN4CCN(C)CC4)cc3OC)c(=O)c12
Please produce an ascending ranking of these molecules based on pEC50. A ranking is expressed here by listing the labels in the requested order.
B, A, C
(B: 7.07, A: 7.70, C: 8.05)

---

# TARGET_OF_ASSAY: human TLR8 (Homo sapiens, UniProt Q9NR97)
# METHOD: HEK-Blue hTLR8 SEAP reporter gene agonist assay
# TEST_CONDITIONS: HEK-Blue hTLR8 cells, 16 to 22 hours incubation
ENDPOINT_NAME: EC50 (nM)

Give recorded EC50. CCCCNc1nc(N)nc2ccn(Cc3ccc(CN(C)C)cc3)c(=O)c12
58

I. CCC[C@@H](CO)Nc1nc(N)nc2ccn(Cc3ccc(CN4CCCC4)cc3Cl)c(=O)c12
II. CCCCNc1nc(N)nc2ccn(Cc3ccc(C(=O)N4CCNCC4)cc3OC)c(=O)c12
EC50 comparison. Which is larger, I or II ? Reply with the label of the item you choose.
II

I. CCC[C@@H](CCO)Nc1nc(N)nc2ccn(Cc3ccc(CN4CC5(COC5)C4)cc3)c(=O)c12
II. CCC[C@@H](CO)Nc1nc(N)nc2ccn(Cc3ccc(CN4CCCC4)cc3C)c(=O)c12
III. CCC[C@@H](CO)Nc1nc(N)nc2ccn(Cc3ccc(CN(C)C)cc3OC)c(=O)c12
Hello, I need these entries ordered by EC50, highest reading first. Thanks! A ranking is expressed here by listing the labels in the requested order.
I, II, III
(I: 40 nM, II: 20 nM, III: 1 nM)

1. CCCCNc1nc(N)nc2ccn(Cc3ccc(C(=O)N4CCN(CCO)CC4)cc3OC)c(=O)c12
2. CCC[C@@H](CO)Nc1nc(N)nc2ccn(Cc3ccc(CN4CCN(C)CC4)cc3OC)c(=O)c12
Kindly compare 1 with 2 and tell me which has the lower EC50 figure. Reply with the label of the item you choose.
2

a. CCCCNc1nc(N)nc2ccn(Cc3ccc(CN4CCCC4)cc3)c(=O)c12
b. CCC[C@@H](CO)Nc1nc(N)nc2ccn(Cc3ccc(CN4CCCC4)cc3)c(=O)c12
c. CCC[C@@H](C)Nc1nc(N)nc2ccn(Cc3ccc(CN(CCO)CCO)cc3)c(=O)c12
Please produce an ascending ranking of these compounds based on EC50. A ranking is expressed here by listing the labels in the requested order.
b, c, a
(b: 3 nM, c: 20 nM, a: 58 nM)

---

# TARGET_OF_ASSAY: UniProt:Q9NYK1
# METHOD: HEK-Blue hTLR7 SEAP reporter gene agonist assay
# TEST_CONDITIONS: HEK-Blue hTLR7 cells, 16 to 22 hours incubation
ENDPOINT_NAME: EC50 (µM)

A. CCCC(CCC)Nc1nc(N)nc2ccn(Cc3ccc(C(=O)N4CCN(C)CC4)cc3)c(=O)c12
B. CCC[C@@H](C)Nc1nc(N)nc2ccn(Cc3ccc(CN4CC5(COC5)C4)cc3)c(=O)c12
Kindly compare A with B and tell me which has the lower EC50 figure. Reply with the label of the item you choose.
B
(B: 0.04 µM, A: 0.086 µM)

---

# TARGET_OF_ASSAY: human TLR7 (Homo sapiens, UniProt Q9NYK1)
# Construct: host or cells: HEK-Blue hTLR7 (HEK293-derived reporter cells)
# Sequence (Q9NYK1 27-1049): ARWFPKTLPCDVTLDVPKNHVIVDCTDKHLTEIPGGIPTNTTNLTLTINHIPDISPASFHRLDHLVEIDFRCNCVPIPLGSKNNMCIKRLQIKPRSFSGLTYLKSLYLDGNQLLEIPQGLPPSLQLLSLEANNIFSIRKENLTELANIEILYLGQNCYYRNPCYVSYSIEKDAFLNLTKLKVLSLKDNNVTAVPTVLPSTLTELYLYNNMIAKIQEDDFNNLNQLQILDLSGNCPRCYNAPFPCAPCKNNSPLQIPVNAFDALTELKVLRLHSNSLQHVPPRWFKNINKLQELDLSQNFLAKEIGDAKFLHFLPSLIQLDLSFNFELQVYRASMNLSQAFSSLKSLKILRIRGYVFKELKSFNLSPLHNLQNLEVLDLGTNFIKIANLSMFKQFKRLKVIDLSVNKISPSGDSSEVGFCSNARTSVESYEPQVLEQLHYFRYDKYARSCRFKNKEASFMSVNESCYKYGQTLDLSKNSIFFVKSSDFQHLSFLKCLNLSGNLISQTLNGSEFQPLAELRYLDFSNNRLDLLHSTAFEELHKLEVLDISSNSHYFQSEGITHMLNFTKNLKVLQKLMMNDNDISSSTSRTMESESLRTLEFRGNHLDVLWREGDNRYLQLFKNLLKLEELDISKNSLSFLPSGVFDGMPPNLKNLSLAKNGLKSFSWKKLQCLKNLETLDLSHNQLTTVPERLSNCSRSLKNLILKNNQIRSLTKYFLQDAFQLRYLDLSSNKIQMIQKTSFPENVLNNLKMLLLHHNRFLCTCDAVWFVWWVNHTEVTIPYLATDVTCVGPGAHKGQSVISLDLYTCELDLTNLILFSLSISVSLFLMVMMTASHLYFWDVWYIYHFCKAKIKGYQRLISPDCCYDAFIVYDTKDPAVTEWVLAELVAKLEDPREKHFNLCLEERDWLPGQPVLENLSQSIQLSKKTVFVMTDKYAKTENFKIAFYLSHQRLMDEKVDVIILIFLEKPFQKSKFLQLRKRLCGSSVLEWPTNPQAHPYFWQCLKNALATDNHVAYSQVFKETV
# METHOD: HEK-Blue hTLR7 SEAP reporter gene agonist assay
# Type: cell-based
# TEST_CONDITIONS: HEK-Blue hTLR7 cells, 16 to 22 hours incubation
ENDPOINT_NAME: EC50 (nM)

Give recorded EC50. CCC[C@@H](CO)Nc1nc(N)nc2ccn(Cc3ccc(CN4CCCC4)cc3Cl)c(=O)c12 [Compound I-168]
40

Give recorded EC50. CCC[C@@H](CO)Nc1nc(N)nc2ccn(Cc3ccc(CN4CCN(C)CC4)cc3OC)c(=O)c12 [Compound I-162]
20

Give recorded EC50. CCC[C@@H](C)Nc1nc(N)nc2ccn(Cc3ccc(CN4CCCC4)cc3)c(=O)c12 [Compound I-103]
64

Give recorded EC50. CCC[C@@H](CO)Nc1nc(N)nc2ccn(Cc3ccc(CN(C)C)cc3OC)c(=O)c12 [Compound I-195]
31

Give recorded EC50. CCC[C@@H](C)Nc1nc(N)nc2ccn(Cc3ccc(CN(C)CCO)cc3)c(=O)c12 [Compound I-139]
30

Give recorded EC50. CCC[C@@H](CO)Nc1nc(N)nc2ccn(Cc3ccc(CN4CCN(CCCCCCN)CC4)cc3OC)c(=O)c12 [Compound I-217]
100

P. CCC[C@@H](C)Nc1nc(N)nc2ccn(Cc3ccc(CN4CCN(CCO)CC4)cc3)c(=O)c12 [Compound I-148]
Q. CCCCNc1nc(N)nc2ccn(Cc3ccc(CN(CCC)CCO)cc3)c(=O)c12 [Compound I-98]
R. CCC[C@@H](C)Nc1nc(N)nc2ccn(Cc3ccc(CN(C)CCO)cc3OC)c(=O)c12 [Compound I-160]
S. CCCCNc1nc(N)nc2ccn(Cc3ccc(CN4CCCC4)nc3OC)c(=O)c12 [Compound I-64]
Please produce an ascending ranking of these compounds based on EC50. A ranking is expressed here by listing the labels in the requested order.
R, P, S, Q

1. CCC[C@@H](C)Nc1nc(N)nc2ccn(Cc3ccc(C(=O)N4CC5CC(C4)N5)cc3OC)c(=O)c12 [Compound I-181]
2. CCCCNc1nc(N)nc2ccn(Cc3ccc(CN4CC5(COC5)C4)cc3)c(=O)c12 [Compound I-52]
Kindly compare 1 with 2 and tell me which has the lower EC50 figure. Reply with the label of the item you choose.
1

---

# TARGET_OF_ASSAY: human TLR8 (Homo sapiens, UniProt Q9NR97)
# METHOD: HEK-Blue hTLR8 SEAP reporter gene agonist assay
# TEST_CONDITIONS: HEK-Blue hTLR8 cells, 16 to 22 hours incubation
ENDPOINT_NAME: EC50 (nM)

Answered examples (2):
Write down the reported EC50 (system: human TLR8 (Homo sapiens, UniProt Q9NR97)) of CCC[C@@H](C)Nc1nc(N)nc2ccn(Cc3ccc(C(=O)N4C5CNCC4C5)cc3)c(=O)c12
40

Write down the reported EC50 (system: human TLR8 (Homo sapiens, UniProt Q9NR97)) of CCC[C@@H](C)Nc1nc(N)nc2ccn(Cc3ccc(C(=O)N4CCNCC4)cc3)c(=O)c12
49

P. CCCCNc1nc(N)nc2ccn(Cc3ccc(C(=O)N4C5CNCC4C5)cc3)c(=O)c12
Q. CCC[C@@H](CO)Nc1nc(N)nc2ccn(Cc3ccc(CNC)cc3OC)c(=O)c12
R. CCCCNc1nc(N)nc2ccn(Cc3ccc(C(=O)N4CCN(C)CC4)c(OC)c3)c(=O)c12
S. CCC[C@@H](C)Nc1nc(N)nc2ccn(Cc3ccc(CN(C)CCO)cc3)c(=O)c12
Please produce an ascending ranking of these compounds based on EC50. A ranking is expressed here by listing the labels in the requested order.
Q, S, P, R
(Q: 3 nM, S: 20 nM, P: 64 nM, R: 105 nM)

A. CCCCNc1nc(N)nc2ccn(Cc3ccc(CN4CC5(COC5)C4)cc3)c(=O)c12
B. CCC[C@@H](CC)Nc1nc(N)nc2ccn(Cc3ccc(CN4CCCC4)cc3)c(=O)c12
Kindly compare A with B and tell me which has the lower EC50 figure. Reply with the label of the item you choose.
A

I. CCCC[C@@H](CO)Nc1nc(N)nc2ccn(Cc3ccc(CN4CCCC4)cc3OC)c(=O)c12
II. CCCCNc1nc(N)nc2ccn(Cc3ccc(C(=O)N4CCNCC4)cc3)c(=O)c12
EC50 comparison. Which is larger, I or II ? Reply with the label of the item you choose.
II

1. CCCCNc1nc(N)nc2ccn(Cc3cnc(CN4CCCC4)cn3)c(=O)c12
2. CCCCNc1nc(N)nc2ccn(Cc3ccc(CNCCO)cc3)c(=O)c12
3. CCC[C@@H](CO)Nc1nc(N)nc2ccn(Cc3ccc(CN4CCCC4)cc3OC)c(=O)c12
4. CCCC(CCOC(=O)C(F)(F)F)Nc1nc(N)nc2ccn(Cc3ccc(CN4CCCC4)cc3)c(=O)c12 (centres unmarked)
Hello, I need these entries ordered by EC50, highest reading first. Thanks! A ranking is expressed here by listing the labels in the requested order.
1, 2, 4, 3
(1: 77 nM, 2: 45 nM, 4: 31 nM, 3: 4 nM)
